# Experiment: self-splicing fitness, log relative to wild type (ln ratio); higher = more splicing; Tetrahymena group I intron in knt gene, E. coli kanamycin selection, DiMSum; sequences stand for … in CUCUCU…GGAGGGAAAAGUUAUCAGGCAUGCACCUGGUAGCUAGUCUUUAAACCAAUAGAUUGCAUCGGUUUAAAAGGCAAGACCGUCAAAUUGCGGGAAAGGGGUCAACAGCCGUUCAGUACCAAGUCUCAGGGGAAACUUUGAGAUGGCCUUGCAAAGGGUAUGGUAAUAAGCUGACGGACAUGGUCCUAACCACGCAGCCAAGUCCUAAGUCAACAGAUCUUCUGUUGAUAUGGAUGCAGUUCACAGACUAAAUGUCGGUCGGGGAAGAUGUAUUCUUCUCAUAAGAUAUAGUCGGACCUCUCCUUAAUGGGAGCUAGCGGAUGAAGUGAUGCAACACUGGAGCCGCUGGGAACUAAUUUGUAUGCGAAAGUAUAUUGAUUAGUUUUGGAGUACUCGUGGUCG;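 further: selection with 25 µg/mL kanamycin versus none on LB agar overnight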
# Setup Conditions: 30 °C
Note to self: values exactly at -2 are 1. So self-splicing fitness (ln) at or above -2 is 1, below is 0.

> print(dat)
        residue.sequence  assigned.category
 1  AUAAAGCAAUAUUACGGCAU                  1
 2  CUGCAGCAAUAUUACGGCAA                  1
 3  AACUAGCAAUAUUACGCUCG                  1
 4  AGGUAGCAAUAUUACGACUC                  1
 5  UUCGAGCAAUAUUACGACGA                  1
 6  GUGUAGCAAUAUUACGACCA                  1
 7  ACGGAGCAAUAUUACGUUGU                  0
 8  GUCGAGCAAUAUUACGGUUU                  1
 9  ACUAAGCAAUAUUACGGACG                  1
10  CGAAAGCAAUAUUACGACCC                  1
11  CCCUAGCAAUAUUACGUACU                  0
12  UGGAAGCAAUAUUACGCGAC                  0
13  AAGCAGCAAUAUUACGGGAC                  0
14  UAGUAGCAAUAUUACGUCAA                  0
15  CCAAAGCAAUAUUACGAGAC                  0
16  CCCUAGCAAUAUUACGGUAG                  0
17  AACCAGCAAUAUUACGUAUC                  0
18  CUACAGCAAUAUUACGUGUU                  0
19  GGCCAGCAAUAUUACGUUUG                  0
20  GUUAAGCAAUAUUACGAACU                  0
21  ACAAAGCAAUAUUACGUUGU                  0
22  GUUCAGCAAUAUUACGAAGC                  1
23  AGGAAGCAAUAUUACGGACU                  1
24  UGGAAGCAAUAUUACGCAGU                  0
25  UUCGAGCAAUAUUACGGUAU                  0
26  GUGUAGCAAUAUUACGAAAU                  1
27  GCGAAGCAAUAUUACGAAAA                  0
28  AUCGAGCAAUAUUACGACGA                  1
29  GUGCAGCAAUAUUACGGGGC                  1
30  UACCAGCAAUAUUACGCCAG                  1
31  CCAGAGCAAUAUUACGACUA                  0
32  GUCGAGCAAUAUUACGGAGU                  0
33  AAGUAGCAAUAUUACGGAGA                  0
34  GGUGAGCAAUAUUACGAUGC                  1
35  GGCCAGCAAUAUUACGUAGG                  0
